# Tested on: HPV-16
# Assay Notes: qPCR sensitivity against HPV-HNSCC tumor samples diluted among 10 ng normal human DNA
# Assay Context: 32 HPV-HNSCC tumor samples, 66 pg DNA
Readout Label: sensitivity under 10 cells (%)
Report as a plain number; the unit % is understood.

Molecule | sensitivity under 10 cells (%)
BR E1-4: HPV-16 E1 region primer/probe set, SEQ ID NO: 37-39 (nucleic acid, chemistry not given here) DNA 1: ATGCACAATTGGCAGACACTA DNA 2: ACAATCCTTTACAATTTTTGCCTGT DNA 3: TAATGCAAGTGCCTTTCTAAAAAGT | 78.1

Given the molecule E6: previously designed (historical) HPV-16 E6 primers and Taqman probe, SEQ ID NO: 7-9, positive control (nucleic acid, Taqman probe, labels not given here) DNA 1: TCAGGACCCACAGGAGCG DNA 2: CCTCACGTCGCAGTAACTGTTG DNA 3: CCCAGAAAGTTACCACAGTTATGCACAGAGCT , what is its reported sensitivity under 10 cells?
53.1
